// provenance: PubChem BioAssay (NCI)

# Test system: IGROV1 ovarian
# method-description: NCI-60 one-dose screen, 48 h (100 = growth as untreated, 0 = no growth, -100 = all killed)
# study-conditions: 10 µM unless noted
This is part of a sample that, as a whole, favours compounds with a hit. Of some 83,000 tested, about 20% had one in any assay.
reported-property: growth (%)

COc1ccc(-c2c3c(nn2-c2ccc(N)cc2)CCc2cnoc2-3)cc1OC	97.6
Nc1ccccc1-c1ccc([N+](=O)[O-])cc1	56.2
C=C1c2c(C)nn(-c3ccc(C#CCOC4OC(CO)C(O)C(O)C4O)cc3)c2N(C)C23C[C@H]1C1(C)c4c(C)nn(-c5ccc(C#CCOC6OC(CO)C(O)C(O)C6O)cc5)c4N(C)C(C)(C[C@H]12)C3 (some centres undefined)	24.7
COc1cc(/C=C2\COc3ccc(O)c(O)c3C2=O)cc(OC)c1	-61.3
